experiment: Organ distribution of injected radioactivity in rats after I.V. injection; assay type: in vivo, Ratten (weiblich, Wistar, spf); conditions: rat, bladder, iv, Blase, 60′, Ratte, read-out: Prozent der injizierten Aktivität pro Gramm des entsprechenden Organs
readout-type: tissue uptake at 1 h (%ID/g)
Respond with the bare value in %ID/g.

Query: Returns the measured tissue uptake at 1 h for the input molecule. Input: CCOC(=O)c1ncn2c1CN(C)C(=O)c1c([123I])cccc1-2
Response: 0.42

----------
Assay: Organ distribution of injected radioactivity in rats after I.V. injection
Assay type: in vivo, Ratten (weiblich, Wistar, spf)
Settings: rat, lung, iv, Lunge, 6h, Ratte, read-out: Prozent der injizierten Aktivität pro Gramm des entsprechenden Organs
Description: Es werden je 3 Ratten (weiblich, Wistar, spf) zu sieben verschiedenen Zeitpunkten (2′, 10′, 20′, 40′, 1h, 6h, 15h) gemessen. Das Gewicht der Tiere lag zwischen 113 und 144 g. Die Fütterung erfolgte ad libitum. Die I.V. injizierten Dosen variierten von 184 bis 355 µCi in jeweils 0,2 ml.
readout-type: tissue uptake at 6 h (%ID/g)
Respond with the bare value in %ID/g.

Query: Returns the measured tissue uptake at 6 h for the input compound. Input: CCOC(=O)c1ncn2c1CN(C)C(=O)c1c([123I])cccc1-2
Response: 0.03

The origin of these recorded values is patent EP0353754A2.
